Hey, just so you know, these numbers are from ChEMBL document CHEMBL1154164.

- Tgt: 72 kDa type IV collagenase (Homo sapiens, UniProt P08253)
- Sequence (P08253 whole entry, the tested form may be a part): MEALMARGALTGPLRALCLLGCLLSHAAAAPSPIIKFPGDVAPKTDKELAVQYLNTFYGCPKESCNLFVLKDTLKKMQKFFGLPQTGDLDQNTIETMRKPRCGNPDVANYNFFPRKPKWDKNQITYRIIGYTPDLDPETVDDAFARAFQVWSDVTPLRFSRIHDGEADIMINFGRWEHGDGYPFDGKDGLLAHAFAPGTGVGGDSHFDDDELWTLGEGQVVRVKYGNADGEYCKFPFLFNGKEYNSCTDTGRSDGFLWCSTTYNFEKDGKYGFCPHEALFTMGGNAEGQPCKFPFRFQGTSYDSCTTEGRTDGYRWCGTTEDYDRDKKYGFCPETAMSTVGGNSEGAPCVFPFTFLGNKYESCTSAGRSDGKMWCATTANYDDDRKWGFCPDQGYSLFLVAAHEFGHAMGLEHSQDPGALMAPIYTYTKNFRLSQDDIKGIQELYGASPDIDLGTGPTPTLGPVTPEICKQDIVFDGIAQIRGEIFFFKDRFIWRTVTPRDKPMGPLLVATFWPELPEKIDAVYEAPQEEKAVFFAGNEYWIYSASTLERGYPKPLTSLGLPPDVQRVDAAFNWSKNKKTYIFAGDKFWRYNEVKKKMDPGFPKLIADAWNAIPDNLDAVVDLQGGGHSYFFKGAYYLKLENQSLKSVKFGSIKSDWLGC
- Assay: Inhibition of para-aminophenylmercuric acetate-activated human recombinant pro-MMP2 catalytic domain after 4 hrs by fluorimetry
Give measured pIC50 for each item. Keep answers brief.
Conceptually, pIC50 converts a concentration in mol/L into minus its log10.

Note to self: pIC50 recorded for "COc1ccc(-c2ccc(S(=O)(=O)c3ccccc3CC(=O)NO)cc2)cc1" was 8.01

Note to self: pIC50 recorded for "O=C(O)Cc1ccccc1S(=O)(=O)c1ccc(-c2ccccc2)cc1" was 6.29

Note to self: pIC50 recorded for "CC(C)ON([C@@H](C(=O)O)C(C)C)S(=O)(=O)c1ccc(-c2ccccc2)cc1" was 5.82

Note to self: pIC50 recorded for "CC(C)ON([C@@H](C(=O)NO)C(C)C)S(=O)(=O)c1ccc(-c2ccccc2)cc1" was 9.10

Note to self: pIC50 recorded for "COc1ccc(Oc2ccc(S(=O)(=O)c3ccccc3C(=O)NO)cc2)cc1" was 5.89

Note to self: pIC50 recorded for "O=C(Cc1ccccc1S(=O)(=O)c1ccc(-c2ccccc2)cc1)NO" was 7.42

Note to self: pIC50 recorded for "COc1ccc(S(=O)(=O)c2ccccc2CC(=O)O)cc1" was 4.24

Note to self: pIC50 recorded for C[S+]([O-])c1ccc(Oc2ccc(S(=O)(=O)c3ccccc3C(=O)NO)cc2)cc1 (stereo not given) was 5.00

Note to self: pIC50 recorded for "O=C(NO)c1ccccc1S(=O)(=O)c1ccc(Oc2ccccc2)cc1" was 5.92

Note to self: pIC50 recorded for COc1ccc(-c2ccc(S(=O)(=O)c3ccccc3C(C)C(=O)NO)cc2)cc1 (racemic) was 8.15

Note to self: pIC50 recorded for CC(C(=O)NO)c1ccccc1S(=O)(=O)c1ccc(-c2ccccc2)cc1 (racemic) was 7.14

Note to self: pIC50 recorded for "COc1ccc(Oc2ccc(S(=O)(=O)c3ccccc3CC(=O)NO)cc2)cc1" was 8.46

Note to self: pIC50 recorded for CC(C(=O)O)c1ccccc1S(=O)(=O)c1ccc(-c2ccccc2)cc1 (racemic) was 5.62

Note to self: pIC50 recorded for "O=C(NO)c1ccccc1S(=O)(=O)c1ccc(-c2ccccc2)cc1" was 5.89

Note to self: pIC50 recorded for "COc1ccc(Oc2ccc(S(=O)(=O)c3ccccc3CC(=O)O)cc2)cc1" was 6.15

Note to self: pIC50 recorded for COc1ccc(-c2ccc(S(=O)(=O)c3ccccc3C(C)C(=O)O)cc2)cc1 (racemic) was 6.72

Note to self: pIC50 recorded for "COc1ccc(-c2ccc(S(=O)(=O)c3ccccc3CC(=O)O)cc2)cc1" was 7.33

Note to self: pIC50 recorded for "COc1ccc(S(=O)(=O)c2ccccc2CC(=O)NO)cc1" was 6.64

Note to self: pIC50 recorded for "COc1ccc(S(=O)(=O)c2ccccc2C(=O)NO)cc1" was 4.46

Note to self: pIC50 recorded for "COc1ccc(-c2ccc(S(=O)(=O)c3ccccc3C(=O)NO)cc2)cc1" was 7.00

----------
- Tgt: Matrix metalloproteinase-14 (Homo sapiens)
- Assay: Inhibition of human recombinant pro-MMP14 catalytic domain after 4 hrs by fluorimetry
Readout type: IC50 (µM)
Give the value in µM but do not write µM after it.

Note to self: IC50 recorded for C[S+]([O-])c1ccc(Oc2ccc(S(=O)(=O)c3ccccc3C(=O)NO)cc2)cc1 (centres undefined) was 120

Note to self: IC50 recorded for "COc1ccc(S(=O)(=O)c2ccccc2CC(=O)NO)cc1" was 0.2

Note to self: IC50 recorded for "COc1ccc(S(=O)(=O)c2ccccc2CC(=O)O)cc1" was 77

Note to self: IC50 recorded for COc1ccc(-c2ccc(S(=O)(=O)c3ccccc3C(C)C(=O)NO)cc2)cc1 (racemic) was 0.36

----------
- Tgt: Matrix metalloproteinase-14 (Homo sapiens)
- Assay: Inhibition of human recombinant pro-MMP14 catalytic domain after 4 hrs by fluorimetry
Readout type: pIC50
Conceptually, pIC50 converts a concentration in mol/L into minus its log10.

Note to self: pIC50 recorded for "COc1ccc(Oc2ccc(S(=O)(=O)c3ccccc3C(=O)NO)cc2)cc1" was 5.40

Note to self: pIC50 recorded for CC(C(=O)NO)c1ccccc1S(=O)(=O)c1ccc(-c2ccccc2)cc1 (racemic) was 6.07

Note to self: pIC50 recorded for "O=C(NO)c1ccccc1S(=O)(=O)c1ccc(-c2ccccc2)cc1" was 5.08

Note to self: pIC50 recorded for "COc1ccc(Oc2ccc(S(=O)(=O)c3ccccc3CC(=O)O)cc2)cc1" was 5.09

Note to self: pIC50 recorded for "COc1ccc(-c2ccc(S(=O)(=O)c3ccccc3C(=O)NO)cc2)cc1" was 5.89

Note to self: pIC50 recorded for CC(C(=O)O)c1ccccc1S(=O)(=O)c1ccc(-c2ccccc2)cc1 (racemic) was 4.74

Note to self: pIC50 recorded for "COc1ccc(S(=O)(=O)c2ccccc2C(=O)NO)cc1" was 4.60

Note to self: pIC50 recorded for "CC(C)ON([C@@H](C(=O)O)C(C)C)S(=O)(=O)c1ccc(-c2ccccc2)cc1" was 5.00

Note to self: pIC50 recorded for "O=C(Cc1ccccc1S(=O)(=O)c1ccc(-c2ccccc2)cc1)NO" was 6.03

Note to self: pIC50 recorded for "COc1ccc(-c2ccc(S(=O)(=O)c3ccccc3CC(=O)O)cc2)cc1" was 6.13

----------
- Tgt: Matrix metalloproteinase-14 (Homo sapiens, UniProt P50281)
- Assay: Inhibition of human recombinant pro-MMP14 catalytic domain after 4 hrs by fluorimetry
pIC50: −log10 of the molar value.
The threshold is inclusive: pIC50 of exactly 6 counts as fulfilled; values below receive not fulfilled.

Textbook exercise: given the entry COc1ccc(-c2ccc(S(=O)(=O)c3ccccc3C(C)C(=O)O)cc2)cc1 (racemic) , state whether its pIC50 is greater than or equal to 6.
not fulfilled

Textbook exercise: given the entry "O=C(O)Cc1ccccc1S(=O)(=O)c1ccc(-c2ccccc2)cc1" , state whether its pIC50 is greater than or equal to 6.
not fulfilled

Textbook exercise: given the entry "COc1ccc(Oc2ccc(S(=O)(=O)c3ccccc3CC(=O)NO)cc2)cc1" , state whether its pIC50 is greater than or equal to 6.
fulfilled

----------
- Tgt: Neutrophil collagenase (Homo sapiens)
- Sequence (P22894 whole entry): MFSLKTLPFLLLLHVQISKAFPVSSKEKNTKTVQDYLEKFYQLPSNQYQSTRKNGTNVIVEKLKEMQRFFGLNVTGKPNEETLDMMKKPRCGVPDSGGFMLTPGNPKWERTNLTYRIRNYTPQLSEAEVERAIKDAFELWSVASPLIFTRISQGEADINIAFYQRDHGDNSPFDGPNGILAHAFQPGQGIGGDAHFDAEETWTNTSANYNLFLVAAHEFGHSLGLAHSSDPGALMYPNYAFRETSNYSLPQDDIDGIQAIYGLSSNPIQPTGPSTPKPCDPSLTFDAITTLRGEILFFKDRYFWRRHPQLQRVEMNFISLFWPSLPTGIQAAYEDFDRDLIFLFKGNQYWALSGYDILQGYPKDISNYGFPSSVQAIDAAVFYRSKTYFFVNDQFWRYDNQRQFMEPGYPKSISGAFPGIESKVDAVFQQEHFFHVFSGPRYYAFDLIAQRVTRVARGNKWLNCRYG
- Assay: Inhibition of para-aminophenylmercuric acetate-activated human pro-MMP8 after 4 hrs by fluorimetry
pIC50: −log10 of the molar value.
The threshold is inclusive: pIC50 of exactly 6 counts as Fulfilled; values below receive Not fulfilled.

Textbook exercise: given the entry "COc1ccc(S(=O)(=O)c2ccccc2C(=O)NO)cc1" , state whether its pIC50 is greater than or equal to 6.
Not fulfilled

Textbook exercise: given the entry "COc1ccc(-c2ccc(S(=O)(=O)c3ccccc3CC(=O)O)cc2)cc1" , state whether its pIC50 is greater than or equal to 6.
Fulfilled

Textbook exercise: given the entry "COc1ccc(-c2ccc(S(=O)(=O)c3ccccc3CC(=O)NO)cc2)cc1" , state whether its pIC50 is greater than or equal to 6.
Fulfilled

Textbook exercise: given the entry COc1ccc(-c2ccc(S(=O)(=O)c3ccccc3C(C)C(=O)NO)cc2)cc1 (racemic) , state whether its pIC50 is greater than or equal to 6.
Fulfilled

Textbook exercise: given the entry "O=C(O)Cc1ccccc1S(=O)(=O)c1ccc(-c2ccccc2)cc1" , state whether its pIC50 is greater than or equal to 6.
Fulfilled

Textbook exercise: given the entry COc1ccc(-c2ccc(S(=O)(=O)c3ccccc3C(C)C(=O)O)cc2)cc1 (racemic) , state whether its pIC50 is greater than or equal to 6.
Fulfilled

Textbook exercise: given the entry "COc1ccc(-c2ccc(S(=O)(=O)c3ccccc3C(=O)NO)cc2)cc1" , state whether its pIC50 is greater than or equal to 6.
Fulfilled

Textbook exercise: given the entry CC(C(=O)NO)c1ccccc1S(=O)(=O)c1ccc(-c2ccccc2)cc1 (racemic) , state whether its pIC50 is greater than or equal to 6.
Fulfilled

Textbook exercise: given the entry CC(C(=O)O)c1ccccc1S(=O)(=O)c1ccc(-c2ccccc2)cc1 (racemic) , state whether its pIC50 is greater than or equal to 6.
Not fulfilled

Textbook exercise: given the entry C[S+]([O-])c1ccc(Oc2ccc(S(=O)(=O)c3ccccc3C(=O)NO)cc2)cc1 (centres undefined) , state whether its pIC50 is greater than or equal to 6.
Not fulfilled

Textbook exercise: given the entry "COc1ccc(S(=O)(=O)c2ccccc2CC(=O)NO)cc1" , state whether its pIC50 is greater than or equal to 6.
Fulfilled

Textbook exercise: given the entry "COc1ccc(S(=O)(=O)c2ccccc2CC(=O)O)cc1" , state whether its pIC50 is greater than or equal to 6.
Not fulfilled

Textbook exercise: given the entry "COc1ccc(Oc2ccc(S(=O)(=O)c3ccccc3C(=O)NO)cc2)cc1" , state whether its pIC50 is greater than or equal to 6.
Not fulfilled

Textbook exercise: given the entry "COc1ccc(Oc2ccc(S(=O)(=O)c3ccccc3CC(=O)NO)cc2)cc1" , state whether its pIC50 is greater than or equal to 6.
Fulfilled

Textbook exercise: given the entry "CC(C)ON([C@@H](C(=O)O)C(C)C)S(=O)(=O)c1ccc(-c2ccccc2)cc1" , state whether its pIC50 is greater than or equal to 6.
Not fulfilled

Textbook exercise: given the entry "O=C(Cc1ccccc1S(=O)(=O)c1ccc(-c2ccccc2)cc1)NO" , state whether its pIC50 is greater than or equal to 6.
Fulfilled

Textbook exercise: given the entry "O=C(NO)c1ccccc1S(=O)(=O)c1ccc(Oc2ccccc2)cc1" , state whether its pIC50 is greater than or equal to 6.
Fulfilled
